Field: IC50. Provide a value for each of the molecules that follow.
- Test system: PC-3
- PROCEDURE SUMMARY: Antiproliferative activity against human PC3 cells assessed as decrease in cell viability after 3 days by WST assay
- Assay type: functional, cell-based
- ASSAY CONDITIONS: PC-3, 72 h
One number for each entry, in µM.

Worked examples follow.
{"columns": ["MOLECULE", "IC50 [µM]"],
 "data": [
  ["CCC(C)n1ccnc1/C=C/C(=O)/C=C/c1cc(OC)c(OC)c(OC)c1 (centres undefined)", 0.72],
  ["CC(C)n1c(/C=C/C(=O)/C=C/c2ccccn2)nc2ccccc21", 0.04],
  ["Cn1cc(Br)c(/C=C/C(=O)/C=C/c2ccccn2)n1", 0.31],
  ["CC(C)n1ccnc1/C=C/C(=O)/C=C/c1nc2ccccc2n1C(C)C", 0.18]
]}

// each listed molecule needs a value for IC50
1. CC(C)n1ccnc1/C=C/C(=O)/C=C/c1cnc(N2CCCCC2)s1
2. Cc1cccc(/C=C/C(=O)/C=C/c2ccccn2)n1
3. Cn1c(/C=C/C(=O)/C=C/c2ccccn2)nc2ccccc21
4. Cc1nc(C(F)(F)F)c(/C=C/C(=O)/C=C/c2nc3ccccc3n2C(C)C)s1

Result:
3.4
0.54
0.56
0.34

Consider the following items and state reported IC50 for each.
1. CCC(C)n1ccnc1/C=C/C(=O)/C=C/c1ccccn1 (centres undefined)
2. CC(C)n1ccnc1/C=C/C(=O)/C=C/c1cnc(N2CCCC2)s1
3. CCC(C)n1ccnc1/C=C/C(=O)/C=C/c1nc2ccccc2n1C(C)CC (centres undefined)
4. CCn1c(/C=C/C(=O)/C=C/c2sc(C)nc2C(F)(F)F)nc2ccccc21

Result:
0.3
6.86
0.24
0.23

Please go through the list and note IC50 for each molecule.
1. CC(C)CCn1ccnc1/C=C/C(=O)/C=C/c1nc2ccccc2n1CCC(C)C
2. CCCC(C)n1ccnc1/C=C/C(=O)/C=C/c1nc2ccccc2n1C(C)CCC (centres undefined)
3. Cc1nc(-c2ccncc2)sc1/C=C/C(=O)/C=C/c1nccn1C(C)C
4. CCC(C)n1ccnc1/C=C/C(=O)/C=C/c1cc(C)on1 (centres undefined)

Result:
[0.21, 0.14, 0.8, 0.31]

Provide the reported IC50 of each entry below, same order.
1. Cc1cc(/C=C/C(=O)/C=C/c2ccccn2)no1
2. CCC(C)n1ccnc1/C=C/C(=O)/C=C/c1nn(C)cc1Br (centres undefined)
3. CC(C)n1ccnc1/C=C/C(=O)/C=C/c1cnc(N2CCOCC2)s1
4. CCC(C)n1ccnc1/C=C/C(=O)/C=C/c1sc(C)nc1C(F)(F)F (centres undefined)

Result:
1: 0.45; 2: 0.33; 3: 2.27; 4: 0.23

====

Would you mind telling me the reported Ratio IC50 of each entry?
- System: DU-145
- PROCEDURE SUMMARY: Potency index, ratio of curcumin IC50 to test compound IC50 for human DU145 cells
- Format: functional
Numbers only.

Recorded results for 10 molecules are shown here.
{"columns": ["MOLECULE", "MEASUREMENT"],
 "data": [
  ["CCCn1ccnc1/C=C/C(=O)/C=C/c1nc2ccccc2n1CCC", 119],
  ["Cn1c(/C=C/C(=O)/C=C/c2ccccn2)nc2ccccc21", 39],
  ["CCn1c(/C=C/C(=O)/C=C/c2sc(C)nc2C(F)(F)F)nc2ccccc21", 53],
  ["CCC(C)n1ccnc1/C=C/C(=O)/C=C/c1nccs1 (configuration not stated)", 62],
  ["CCC(C)n1ccnc1/C=C/C(=O)/C=C/c1conc1C (configuration not stated)", 35],
  ["CCC(C)n1ccnc1/C=C/C(=O)/C=C/c1ccc(OC)c(OC)c1 (configuration not stated)", 31],
  ["O=C(/C=C/c1ccccn1)/C=C/c1nccs1", 23],
  ["CC(C)n1ccnc1/C=C/C(=O)/C=C/c1cnc(N2CCOCC2)s1", 20],
  ["CCCCn1ccnc1/C=C/C(=O)/C=C/c1nc2ccccc2n1CCCC", 85],
  ["Cc1nc(C(F)(F)F)c(/C=C/C(=O)/C=C/c2nc3ccccc3n2C(C)C)s1", 46]
]}

Your task in this section: give Ratio IC50 for each listed record.
1. Cc1cccc(/C=C/C(=O)/C=C/c2ccccn2)n1
2. CCC(C)n1ccnc1/C=C/C(=O)/C=C/c1sc(C)nc1C(F)(F)F (configuration not stated)

Result:
1: 42; 2: 75

====

Task for the reader: assign each of the following compounds its reported Ratio IC50.
- System: DU-145
- PROCEDURE SUMMARY: Potency index, ratio of curcumin IC50 to test compound IC50 for human DU145 cells
- Type: functional
One number for each entry.

Example entries begin here.
{"columns": ["COMPOUND", "Ratio IC50"],
 "data": [
  ["COc1ccc(/C=C/C(=O)/C=C/c2ccccn2)cc1OC", 13],
  ["CCC(C)n1ccnc1/C=C/C(=O)/C=C/c1cc(C)on1 (stereo unspecified)", 50],
  ["CCCn1c(/C=C/C(=O)/C=C/c2ccccn2)nc2ccccc21", 82]
]}

Record Ratio IC50 per entry; entries follow.
1. CC(C)Cn1ccnc1/C=C/C(=O)/C=C/c1nc2ccccc2n1CC(C)C
2. CCCC(C)n1ccnc1/C=C/C(=O)/C=C/c1nc2ccccc2n1C(C)CCC (stereo unspecified)
3. Cn1cc(Br)c(/C=C/C(=O)/C=C/c2ccccn2)n1
4. Cc1nc(C(F)(F)F)c(/C=C/C(=O)/C=C/c2nc3ccccc3n2C)s1
5. CC(C)n1c(/C=C/C(=O)/C=C/c2ccccn2)nc2ccccc21
6. CC(C)n1ccnc1/C=C/C(=O)/C=C/c1cnc(N2CCCC2)s1
7. CC(C)CCn1ccnc1/C=C/C(=O)/C=C/c1nc2ccccc2n1CCC(C)C
8. Cc1nc(-c2ccncc2)sc1/C=C/C(=O)/C=C/c1nccn1C(C)C

Result:
1: 71; 2: 94; 3: 53; 4: 34; 5: 219; 6: 7; 7: 34; 8: 40

====

- Tested on: LNCaP
- PROCEDURE SUMMARY: Potency index, ratio of curcumin IC50 to test compound IC50 for human LNCAP cells
- Assay type: functional
Give measured Ratio IC50 for each item. Keep answers brief.

{"columns": ["COMPOUND", "TESTED SYSTEM", "Ratio IC50"],
 "data": [
  ["CCC(C)n1ccnc1/C=C/C(=O)/C=C/c1ccc(OC)c(OC)c1 (stereo unspecified)", "LNCaP", 15],
  ["CCC(C)n1ccnc1/C=C/C(=O)/C=C/c1ccccn1 (stereo unspecified)", "LNCaP", 57],
  ["Cn1c(/C=C/C(=O)/C=C/c2ccccn2)nc2ccccc21", "LNCaP", 76],
  ["COc1cc(/C=C/C(=O)/C=C/c2ccccn2)cc(OC)c1OC", "LNCaP", 34],
  ["COc1ccc(/C=C/C(=O)/C=C/c2ccccn2)cc1OC", "LNCaP", 8],
  ["CCC(C)n1ccnc1/C=C/C(=O)/C=C/c1nccs1 (stereo unspecified)", "LNCaP", 80],
  ["CC(C)n1ccnc1/C=C/C(=O)/C=C/c1nc2ccccc2n1C(C)C", "LNCaP", 52],
  ["CCC(C)n1ccnc1/C=C/C(=O)/C=C/c1nc2ccccc2n1C(C)CC (stereo unspecified)", "LNCaP", 41]
]}

Provide each entry's Ratio IC50 from the list below.
1. CC(C)Cn1ccnc1/C=C/C(=O)/C=C/c1nc2ccccc2n1CC(C)C
2. O=C(/C=C/c1ccccn1)/C=C/c1nccs1
3. CC(C)n1ccnc1/C=C/C(=O)/C=C/c1cnc(N2CCCCC2)s1
4. CCn1c(/C=C/C(=O)/C=C/c2sc(C)nc2C(F)(F)F)nc2ccccc21
5. CCC(C)n1ccnc1/C=C/C(=O)/C=C/c1cccc(C)n1 (stereo unspecified)
6. CCC(C)n1ccnc1/C=C/C(=O)/C=C/c1nn(C)cc1Br (stereo unspecified)

Result:
1. 24
2. 30
3. 6
4. 54
5. 52
6. 44

Please supply Ratio IC50 for each of the following items, keeping them in order.
1. CCCn1ccnc1/C=C/C(=O)/C=C/c1nc2ccccc2n1CCC
2. CCCn1c(/C=C/C(=O)/C=C/c2sc(C)nc2C(F)(F)F)nc2ccccc21
3. CC(C)n1ccnc1/C=C/C(=O)/C=C/c1cnc(N2CCCC2)s1
4. CCC(C)n1ccnc1/C=C/C(=O)/C=C/c1cc(OC)c(OC)c(OC)c1 (stereo unspecified)
5. CCC(C)n1ccnc1/C=C/C(=O)/C=C/c1cc(C)on1 (stereo unspecified)

Result:
1: 62; 2: 30; 3: 3; 4: 21; 5: 57

# batch: return Ratio IC50 for each of the 2 compounds below
1. CCCC(C)n1ccnc1/C=C/C(=O)/C=C/c1nc2ccccc2n1C(C)CCC (stereo unspecified)
2. CC(C)CCn1ccnc1/C=C/C(=O)/C=C/c1nc2ccccc2n1CCC(C)C

Result:
[37, 41]
